Tested on: S. aureus MN8
Format: cell-based, Staphylococcus aureus
Ends that are not written are not given here.
Property Name: antimicrobial activity

SFPTTKTYFPHFDLSHGSAQVK-agarose beads (not fully specified (C-terminus)) [Hbg-3]; not antimicrobial
STKPFFYFLHTQVKASPTSHDG [Hbg-2]; not antimicrobial
